Origin of values: the supplement of paper PMC7877785

sequences and their reported self-splicing fitness (ln)
ASSAY_NAME: self-splicing fitness, log relative to wild type (ln ratio); higher = more splicing; Tetrahymena group I intron in knt gene, E. coli kanamycin selection, DiMSum; sequences stand for … in CUCUCU…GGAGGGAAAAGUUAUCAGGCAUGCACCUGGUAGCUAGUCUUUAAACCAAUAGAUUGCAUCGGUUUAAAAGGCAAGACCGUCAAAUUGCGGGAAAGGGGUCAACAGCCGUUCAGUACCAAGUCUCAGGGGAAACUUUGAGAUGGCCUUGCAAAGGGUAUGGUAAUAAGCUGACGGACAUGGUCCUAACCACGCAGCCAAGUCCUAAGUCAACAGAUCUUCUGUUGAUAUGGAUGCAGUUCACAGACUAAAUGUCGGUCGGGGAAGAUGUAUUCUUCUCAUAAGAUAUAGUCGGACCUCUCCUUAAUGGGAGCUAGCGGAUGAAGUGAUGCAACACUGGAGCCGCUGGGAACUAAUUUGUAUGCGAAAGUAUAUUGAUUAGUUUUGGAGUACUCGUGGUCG;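 also: selection with 25 µg/mL kanamycin versus none on LB agar overnight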
RUN_PARAMETERS: 37 °C
EXPERIMENTAL_ENDPOINT: self-splicing fitness (ln)

1. UGCCAGCAAUAUUACGCAAU | -2.59
2. AAGUAGCAAUAUUACGAUUG | -0.999
3. AAAAAGCAAUAUUACGAACU | -0.079
4. UACCAGCAAUAUUACGUGCU | -2.93
5. ACAAAGCAAUAUUACGAACG | 0.144
6. GAUAAGCAAUAUUACGCGAG | -0.376
7. CCCUAGCAAUAUUACGGUCA | -2.65
8. ACUGAGCAAUAUUACGGGAC | -1.43
9. GCCAAGCAAUAUUACGUUAU | -0.784
10. CAAAAGCAAUAUUACGCACC | -0.0893
11. GAACAGCAAUAUUACGUAGA | -0.162
12. GGUAAGCAAUAUUACGCACU | -2.23
13. GAACAGCAAUAUUACGCUAA | -0.958
14. ACAGAGCAAUAUUACGUGCA | -1.57

###

ASSAY_NAME: self-splicing fitness, log relative to wild type (ln ratio); higher = more splicing; Tetrahymena group I intron in knt gene, E. coli kanamycin selection, DiMSum; sequences stand for … in CUCUCU…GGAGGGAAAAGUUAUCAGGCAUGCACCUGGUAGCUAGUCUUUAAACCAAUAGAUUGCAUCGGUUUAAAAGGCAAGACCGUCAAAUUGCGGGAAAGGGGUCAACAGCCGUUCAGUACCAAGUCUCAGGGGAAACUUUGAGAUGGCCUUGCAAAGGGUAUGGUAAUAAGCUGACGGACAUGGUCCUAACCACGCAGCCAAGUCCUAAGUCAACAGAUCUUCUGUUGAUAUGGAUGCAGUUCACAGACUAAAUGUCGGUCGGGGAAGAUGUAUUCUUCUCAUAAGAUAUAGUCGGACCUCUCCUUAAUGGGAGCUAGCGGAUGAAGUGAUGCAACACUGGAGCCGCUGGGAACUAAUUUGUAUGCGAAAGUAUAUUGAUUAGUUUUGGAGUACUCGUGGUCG
RUN_PARAMETERS: 30 °C
EXPERIMENTAL_ENDPOINT: self-splicing fitness (ln)

1. GUUCAGCAAUAUUACGUCCA | -0.981
2. GAUCAGCAAUAUUACGUAAA | -0.582
3. UAGCAGCAAUAUUACGGUUU | -0.986
4. GCACAGCAAUAUUACGUCCG | -0.402
5. GCGGAGCAAUAUUACGAAAU | -2.94
6. UUUAAGCAAUAUUACGCACC | -2.05
7. ACUCAGCAAUAUUACGGUGC | -1.69
8. CUGGAGCAAUAUUACGGGGG | -2.27
9. CUUGAGCAAUAUUACGCGAG | -3.64
10. UGGUAGCAAUAUUACGAGCC | -2.3
11. UGAUAGCAAUAUUACGUUUG | -1.26
12. AGUAAGCAAUAUUACGGGUG | -3.13
13. GUGCAGCAAUAUUACGGAUA | -1.76
14. AAUGAGCAAUAUUACGGAUG | -3.35
15. CGCUAGCAAUAUUACGGGCU | -1.85
16. AUUGAGCAAUAUUACGUACA | -3.85
17. GCGUAGCAAUAUUACGAGGA | -1.09
18. AGCUAGCAAUAUUACGGAAC | -2.7
19. ACCAAGCAAUAUUACGAGGA | -3.15
20. CCUGAGCAAUAUUACGUAAU | -2.24
21. GUAUAGCAAUAUUACGUCGC | -3.04
22. ACGAAGCAAUAUUACGAAAG | -3.2
23. CUCGAGCAAUAUUACGCGGA | -3.05
24. UCACAGCAAUAUUACGAUGG | -1.52
25. UACGAGCAAUAUUACGAUUC | -3.01
26. UGCCAGCAAUAUUACGCUGC | -3.85
27. AUAGAGCAAUAUUACGCACG | -1.57
28. ACUGAGCAAUAUUACGGUAC | -3.19
29. AUCAAGCAAUAUUACGAAUC | -4.76
30. CUUAAGCAAUAUUACGGCGG | -1.25
31. ACUGAGCAAUAUUACGUGUG | -2.22
32. GUCUAGCAAUAUUACGUUUU | -1.2
33. CAGCAGCAAUAUUACGAUCU | -3.54
34. GCGAAGCAAUAUUACGUCAU | -2.72
35. GACUAGCAAUAUUACGGAUG | -2.9
36. AUAAAGCAAUAUUACGUCCG | -0.335
37. GCGCAGCAAUAUUACGCAAC | -1.79
38. CUCCAGCAAUAUUACGAAGG | -3.5
39. GCCUAGCAAUAUUACGACUU | -1.37

###

ASSAY_NAME: self-splicing fitness, log relative to wild type (ln ratio); higher = more splicing; Tetrahymena group I intron in knt gene, E. coli kanamycin selection, DiMSum; sequences stand for … in CUCUCU…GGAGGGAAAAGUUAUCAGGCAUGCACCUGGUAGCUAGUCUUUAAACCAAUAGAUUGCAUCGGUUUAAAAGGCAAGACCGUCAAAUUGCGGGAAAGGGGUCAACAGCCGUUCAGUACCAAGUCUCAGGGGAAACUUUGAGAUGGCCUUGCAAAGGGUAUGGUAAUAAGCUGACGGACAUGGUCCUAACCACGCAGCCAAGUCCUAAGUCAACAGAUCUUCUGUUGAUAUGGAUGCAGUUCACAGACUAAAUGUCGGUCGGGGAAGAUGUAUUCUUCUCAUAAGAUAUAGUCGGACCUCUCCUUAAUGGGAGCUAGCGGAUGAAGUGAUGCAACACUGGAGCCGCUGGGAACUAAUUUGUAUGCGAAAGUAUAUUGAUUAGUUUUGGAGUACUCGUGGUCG
RUN_PARAMETERS: 37 °C
# Lookup of reported self-splicing fitness (ln) keyed by entry
EXPERIMENTAL_ENDPOINT: self-splicing fitness (ln)

1) CGACAGCAAUAUUACGGUUA | 0.0311
2) CUCGAGCAAUAUUACGUCGC | -1.12
3) CGCAAGCAAUAUUACGUGGA | -1.6
4) GGGCAGCAAUAUUACGAGAC | -1.74
5) UCUGAGCAAUAUUACGGACU | -1.21
6) CGGGAGCAAUAUUACGAACA | -1.37
7) AAGAAGCAAUAUUACGAACC | -0.25
8) UACGAGCAAUAUUACGAACU | -2.4
9) GCGUAGCAAUAUUACGUACG | -2.88
10) CGAAAGCAAUAUUACGGAGC | -2.22
11) ACGUAGCAAUAUUACGUAUU | -2.48
12) CACGAGCAAUAUUACGUGGG | -2.71
13) GAGAAGCAAUAUUACGGGCU | -1.16
14) AUGAAGCAAUAUUACGAUUG | -1.24
15) UCUUAGCAAUAUUACGCAUG | -0.995
16) CCUGAGCAAUAUUACGCCGU | -1.61
17) AUAUAGCAAUAUUACGAGCG | -0.66
18) AAUAAGCAAUAUUACGUGCA | 0.0616
19) CUAGAGCAAUAUUACGUGAG | 0.0704

###

ASSAY_NAME: self-splicing fitness, log relative to wild type (ln ratio); higher = more splicing; Tetrahymena group I intron in knt gene, E. coli kanamycin selection, DiMSum; sequences stand for … in CUCUCU…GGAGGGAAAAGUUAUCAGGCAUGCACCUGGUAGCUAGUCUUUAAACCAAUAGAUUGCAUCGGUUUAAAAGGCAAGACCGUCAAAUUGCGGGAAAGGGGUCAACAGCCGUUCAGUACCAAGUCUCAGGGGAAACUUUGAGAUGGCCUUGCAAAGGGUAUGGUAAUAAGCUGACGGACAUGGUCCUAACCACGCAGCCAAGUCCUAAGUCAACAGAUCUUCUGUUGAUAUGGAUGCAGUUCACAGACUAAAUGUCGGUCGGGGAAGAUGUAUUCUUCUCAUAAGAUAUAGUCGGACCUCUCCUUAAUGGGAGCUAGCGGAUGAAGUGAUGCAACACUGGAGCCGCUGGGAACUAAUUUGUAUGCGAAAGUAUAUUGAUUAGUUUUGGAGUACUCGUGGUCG
RUN_PARAMETERS: 30 °C
Kind request: treat -3 as inclusive, so self-splicing fitness (ln) at -3 or higher is TRUE, anything lower is FALSE.

1) UAUAAGCAAUAUUACGGGGG | FALSE
2) ACCGAGCAAUAUUACGAUGA | TRUE
3) UUCAAGCAAUAUUACGCCAU | FALSE
4) ACCUAGCAAUAUUACGAUGU | TRUE
5) UACCAGCAAUAUUACGAUUA | TRUE
6) UUGUAGCAAUAUUACGAAAA | TRUE
7) UUUAAGCAAUAUUACGGUGC | FALSE
8) GAAAAGCAAUAUUACGAUUA | TRUE
9) UCCUAGCAAUAUUACGACGU | TRUE
10) AAUCAGCAAUAUUACGGACA | TRUE
11) GCGAAGCAAUAUUACGGUGA | TRUE
12) UUAGAGCAAUAUUACGACUG | TRUE
13) AACUAGCAAUAUUACGGAGA | TRUE
14) GUUAAGCAAUAUUACGUAAG | TRUE
15) GCAUAGCAAUAUUACGUGUA | TRUE
16) GCAAAGCAAUAUUACGGACG | TRUE
17) AAGUAGCAAUAUUACGCCGG | FALSE
18) CACAAGCAAUAUUACGAUCA | TRUE
19) GCUUAGCAAUAUUACGCGAG | TRUE
20) UUUCAGCAAUAUUACGUUUU | FALSE
21) CAGCAGCAAUAUUACGAUAG | TRUE
22) AGGAAGCAAUAUUACGUAAG | TRUE
23) GCCGAGCAAUAUUACGUGGC | FALSE
24) UGUCAGCAAUAUUACGCUGA | TRUE
25) AACUAGCAAUAUUACGAGGU | FALSE
26) CACGAGCAAUAUUACGCGGG | FALSE
27) UUGAAGCAAUAUUACGUUAA | TRUE
28) AAUAAGCAAUAUUACGGCCA | TRUE
29) AUCCAGCAAUAUUACGCGUU | TRUE
30) AGGCAGCAAUAUUACGGGCU | TRUE
31) GUUCAGCAAUAUUACGCCAA | TRUE
32) CAGUAGCAAUAUUACGGUGC | FALSE
33) CGAGAGCAAUAUUACGGAAA | TRUE
34) UGUAAGCAAUAUUACGUGAU | FALSE
35) CGGUAGCAAUAUUACGAACA | TRUE
36) CCUCAGCAAUAUUACGAUUU | FALSE
37) AGCCAGCAAUAUUACGCUGG | FALSE
38) UGCCAGCAAUAUUACGUAUC | FALSE
39) GCUGAGCAAUAUUACGGGUA | TRUE
40) UAUAAGCAAUAUUACGUGAC | TRUE
41) CUGUAGCAAUAUUACGGUAG | TRUE
